Hello, the source for this data is the supplement of paper PMC8882468, in case you need it.

System: HCI-001 (organoid from a triple-negative breast cancer xenograft)
Test: CTG-3D luminescence at 96 h relative to day-0 seeding control (ratio to day 0); higher = more growth / less cytotoxicity; PDxO 3D drug screen, 96 h, CTG-3D normalised to day-0 seeding control.
Details: 1 µM; days in culture: 346
Kindly return yes if reported CTG-3D luminescence at 96 h is no lower than 1; return no if it is lower.

Prompt: Item `COc1cc2c(Oc3ccc4[nH]c(C)cc4c3F)ncnc2cc1OCCCN1CCCC1` with CTG-3D luminescence at 96 h of 1 or above?
Completion: yes

Prompt: Determine whether this molecule has CTG-3D luminescence at 96 h no lower than 1: `C=CC(=O)N1CCC[C@@H](n2nc(-c3ccc(Oc4ccccc4)cc3)c3c(N)ncnc32)C1`
Completion: yes

Prompt: Kindly determine if CTG-3D luminescence at 96 h recorded for `CS(=O)(=O)c1ccc(C(=O)Nc2ccc(Cl)c(-c3ccccn3)c2)c(Cl)c1` is above or exactly 1.
Completion: yes

Prompt: // inclusive: CTG-3D luminescence at 96 h at least 1? input: `CC[C@H](NC(=O)[C@H](C)NC)C(=O)N1C[C@@H](O)C[C@H]1Cc1c(-c2[nH]c3cc(F)ccc3c2C[C@@H]2C[C@H](O)CN2C(=O)[C@H](CC)NC(=O)[C@H](C)NC)[nH]c2cc(F)ccc12`
Completion: yes

Prompt: Given the entry `C/C=C1\NC(=O)[C@H]2CSSCC/C=C/[C@H](CC(=O)N[C@H](C(C)C)C(=O)N2)OC(=O)[C@H](C(C)C)NC1=O` , answer whether its CTG-3D luminescence at 96 h meets or surpasses 1.
Completion: no

Prompt: State whether the measured CTG-3D luminescence at 96 h reaches 1, counting equality as reaching it, for CN(Cc1cnc2nc(N)nc(N)c2n1)c1ccc(C(=O)N[C@@H](CCC(=O)O)C(=O)O)cc1 [methotrexate]
Completion: no

Prompt: # check: CTG-3D luminescence at 96 h of C[C@]12CC[C@@H]3c4ccc(O)cc4C[C@@H](CCCCCCCCC[S+]([O-])CCCC(F)(F)C(F)(F)F)[C@H]3[C@@H]1CC[C@@H]2O (stereo partly drawn) is greater than or equal to 1
Completion: yes

Prompt: Test whether the molecule `CCN(c1cc(C#CCN2CCOCC2)cc(C(=O)NCc2c(C)cc(C)[nH]c2=O)c1C)[C@H]1CC[C@H](N(C)CCOC)CC1` records CTG-3D luminescence at 96 h of 1 or higher.
Completion: yes

---

Tested on: HCI-011.E2 (organoid from an ER-positive breast cancer xenograft)
Assay: CTG-3D luminescence at 96 h relative to day-0 seeding control (ratio to day 0); higher = more growth / less cytotoxicity; PDxO 3D drug screen (set 2), 96 h, CTG-3D normalised to day-0 seeding control.
Details: 0.005 µM
property_label: CTG-3D luminescence at 96 h
When you answer, write just the number.

Just so you know, measured CTG-3D luminescence at 96 h for `CS(=O)(=O)CCNCc1ccc(-c2ccc3ncnc(Nc4ccc(OCc5cccc(F)c5)c(Cl)c4)c3c2)o1` came out at 1.26

Lab book: CTG-3D luminescence at 96 h of `CCOc1ccn(-c2ccc(F)cc2)c(=O)c1C(=O)Nc1ccc(Oc2ccnc(N)c2Cl)c(F)c1` noted as 1.28

get_value(item= `CO[C@H]1C[C@@H]2CC[C@@H](C)[C@@](O)(O2)C(=O)C(=O)N2CCCC[C@H]2C(=O)O[C@H]([C@H](C)C[C@@H]2CC[C@@H](OCCO)[C@H](OC)C2)CC(=O)[C@H](C)/C=C(\C)[C@@H](O)[C@@H](OC)C(=O)[C@H](C)C[C@H](C)/C=C/C=C/C=C/1C` , readout=CTG-3D luminescence at 96 h) returns 0.684

Form: compound = `CC(C)n1nc(-c2ccc3oc(N)nc3c2)c2c(N)ncnc21` ; CTG-3D luminescence at 96 h = 0.974

So for COc1cccc2c1C(=O)c1c(O)c3c(c(O)c1C2=O)C[C@@](O)(C(=O)CO)C[C@@H]3O[C@H]1C[C@H](N)[C@@H](O)[C@H](C)O1 [epirubicin] , the logged CTG-3D luminescence at 96 h turned out to be 1.53
